target: Cruzipain (Trypanosoma cruzi); assay: qHTS Assay for Promiscuous and Specific Inhibitors of Cruzain (without detergent); conditions: purified cruzain, Z-FR-AMC fluorescence, no detergent; note: nearly all actives have a fitted effect of over 40% in size;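 for max response, negative = inhibition: plate controls were enzyme without inhibitor for no effect and buffer without enzyme for full effect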
The whole screen tested about 200,000 compounds, of which about 4,500 (2.2%) were called active. Another 12% or so got no clear call; they are omitted. Only a selection was taken, and actives are over-represented in it overall.

{"molecule": "CCOc1ccc(NC(=O)C(=O)NCCc2csc3nc(-c4ccccc4F)nn23)cc1", "max response, negative = inhibition, %": -1.02}
{"molecule": "CCN(c1ncnc2c1cnn2-c1ccc(C)cc1)C1CCCCC1", "max response, negative = inhibition, %": 2.47}
{"molecule": "COC(=O)c1ccc(C2NC(=O)NC(C)=C2C(=O)N(C)C)cc1 (stereo unspecified)", "max response, negative = inhibition, %": -7.98}
{"molecule": "CCOC(=O)C1=C(C)NC(C)=C(C(=O)OCC)C1c1ccccn1", "max response, negative = inhibition, %": 6.72}
{"molecule": "CCCN1CCN(CCCNC(=O)c2cnn(-c3ccc(C)cc3)c2-n2cccc2)CC1", "max response, negative = inhibition, %": 7.09}
{"molecule": "COc1ccccc1N1CCN(c2ncnc3onc(-c4cccc(Cl)c4)c23)CC1", "max response, negative = inhibition, %": 9.06}
{"molecule": "CCOCc1nnc(NC(=O)CSc2ccc(C)cc2)s1", "max response, negative = inhibition, %": 1.04}
{"molecule": "CN(C)c1ccnc(Oc2ccc(F)cc2)c1C#N", "max response, negative = inhibition, %": -8.17}
{"molecule": "COc1ccccc1-c1noc(CSc2nnc(-c3ccccc3)n2-c2ccc(C)c(C)c2)n1", "max response, negative = inhibition, %": -9.67}
{"molecule": "COCCNc1ncnc2c1c(-c1ccccc1)cn2-c1ccc(C)c(Cl)c1", "max response, negative = inhibition, %": 6.98}
{"molecule": "COc1ccccc1-c1cc(C(F)(F)F)nc(S(=O)(=O)CCCC(=O)Nc2cc(C)ccc2O)n1", "max response, negative = inhibition, %": -0.825}
{"molecule": "O=C(Cc1c[nH]c2ccccc12)OCCOC(=O)Cc1c[nH]c2ccccc12", "max response, negative = inhibition, %": 1.16}
{"molecule": "CCc1ccc(-n2nnc(-c3nc(-c4ccccc4)no3)c2C)cc1", "max response, negative = inhibition, %": 11.5}
{"molecule": "O=C1N(Cc2ccccc2)c2ccc(Cl)cc2C1(O)c1c[nH]c2ccccc12 (stereo unspecified)", "max response, negative = inhibition, %": 18.9}
{"molecule": "O=S(=O)(c1ccccc1)c1nc(-c2ccc(Cl)cc2Cl)oc1N1CCCCC1", "max response, negative = inhibition, %": -16.2}
{"molecule": "COc1ccc(-c2nc(C)c(CCNC(=O)c3ccc(C(F)(F)F)cc3)s2)cc1OC", "max response, negative = inhibition, %": 17.5}
{"molecule": "CCOC(=O)c1cc2c(=O)n3ccccc3nc2n(CCCOC)c1=NC(=O)C(C)Oc1ccccc1 (stereo unspecified)", "max response, negative = inhibition, %": -4.02}
{"molecule": "CCOc1cccc(CNC(=O)c2ccc(N3CCCC3)c(NC(=O)Nc3ccccc3CC)c2)c1", "max response, negative = inhibition, %": -7.71}
{"molecule": "COc1ccc(-c2nn3c(=O)cc(CN4CCN(C(=O)c5ccc(OC)c(OC)c5)CC4)nc3s2)cc1", "max response, negative = inhibition, %": -11}
{"molecule": "Cc1c(Cl)cccc1-c1ccc(CNCCCSc2nnnn2C)o1", "max response, negative = inhibition, %": -7.09}
{"molecule": "O=C(CCCCn1c(=O)[nH]c2ccccc2c1=O)NCc1ccc2c(c1)OCO2", "max response, negative = inhibition, %": 8.55}

* * *

target: Cruzipain (Trypanosoma cruzi); assay: qHTS Assay for Promiscuous and Specific Inhibitors of Cruzain (without detergent); conditions: purified cruzain, Z-FR-AMC fluorescence, no detergent; note: nearly all actives have a fitted effect of over 40% in size;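 for max response, negative = inhibition: plate controls were enzyme without inhibitor for no effect and buffer without enzyme for full effect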
About 4,500 (2.2%) of roughly 200,000 compounds were called active. Roughly 12% stayed inconclusive and do not appear here. What follows is part of a selection rich in actives, with near analogues and random picks from the rest.
assay.endpoint: max response, negative = inhibition (%)

{"molecule": "COc1ccccc1NC(=O)CSC1=Nc2ccccc2C2=NC(CC(=O)NCc3cccs3)C(=O)N12 (configuration not stated)", "assay.value": -5.88}
{"molecule": "CCc1nnc(SCc2nc(-c3cccc(C)c3)oc2C)c2cc3sc(C)cc3n12", "assay.value": -17.8}
{"molecule": "COc1ccc(CNC(=O)c2ccc3c(c2)nc2n3CCOC2)c(OC)c1", "assay.value": -7.25}
{"molecule": "CCc1nnc(NC(=O)c2cccs2)s1", "assay.value": -8.43}
{"molecule": "COc1ccc(C(=O)Nc2nc(-c3ccc(S(=O)(=O)N4CCOCC4)cc3)cs2)cc1", "assay.value": -19.9}
{"molecule": "O=C(CC1(O)C(=O)N(CN2CCOCC2)c2ccccc21)c1ccccc1 (configuration not stated)", "assay.value": 2.42}
{"molecule": "CCOc1cccc(C(=O)Nc2nnc(S(=O)(=O)N(C)c3ccc(C)cc3)s2)c1", "assay.value": -15.4}
{"molecule": "CCNC(=S)N(CCc1c(C)[nH]c2ccc(C)cc12)Cc1ccco1", "assay.value": -13.2}
{"molecule": "CC(=O)Nc1ccc(NC(=O)CCCc2nc(-c3ccc(C(C)(C)C)cc3)no2)cc1", "assay.value": -10.5}
{"molecule": "COCCNC(=O)CSc1c(C)cnc2c1c(=O)n(C)c(=O)n2C", "assay.value": 7.18}
{"molecule": "COC(=O)c1cc(NC(=O)c2sc3ccccc3c2Cl)cc(C(=O)OC)c1", "assay.value": -7.2}
{"molecule": "CCCCN(CC)C(=O)c1c[nH]c2ccc(S(=O)(=O)Nc3cccc(OC)c3)cc2c1=O", "assay.value": -1.35}
{"molecule": "COC(=O)c1ccc(CSc2nnc(NC(C)C)s2)cc1", "assay.value": 5.53}
{"molecule": "CCOc1ccccc1Nc1nnc(SCc2ccc(C(=O)OC)o2)s1", "assay.value": 2.33}
{"molecule": "Cc1ccc(-c2nc3ccccc3[nH]2)cc1N", "assay.value": 0.934}
{"molecule": "COc1cc2c(=O)c(S(=O)(=O)c3ccc(C(C)C)cc3)cn(Cc3ccccc3C)c2cc1OC", "assay.value": 19.9}
{"molecule": "Cn1nnc2c(N3CCN(c4ccccc4)CC3)ncnc21", "assay.value": -1.23}
{"molecule": "COc1ccc(NC(=S)NCc2cccs2)c(OC)c1", "assay.value": 1.46}
{"molecule": "COc1ccccc1NC(=O)CCC(=O)N1CC(C)Oc2ccc(C)cc21 (configuration not stated)", "assay.value": -1.12}
{"molecule": "CCc1nnc(NC(=O)CSc2nnc(Cc3ccccc3)n2-c2ccc(OC)cc2)s1", "assay.value": -3.04}
{"molecule": "COc1ccc(C(=O)N2CCC(c3nc4ccccc4o3)CC2)cc1", "assay.value": 14.3}
{"molecule": "Cc1ccc(-n2ncc3c(N4CCC(C(N)=O)CC4)ncnc32)cc1", "assay.value": 17.2}

* * *

target: Cruzipain (Trypanosoma cruzi); assay: qHTS Assay for Promiscuous and Specific Inhibitors of Cruzain (without detergent); settings: purified cruzain, Z-FR-AMC fluorescence, no detergent; note: nearly all actives have a fitted effect of over 40% in size; note: potency is the fitted concentration of half-maximal effect
Hit rate of the full screen: of about 200,000 compounds, about 4,500 (2.2%) were called active. Roughly 12% stayed inconclusive and do not appear here. Shown is part of a subset that was picked to be rich in actives.

{"compound": "Cc1ccc(N2C(=O)C3C(c4ccccc4)(C2=O)C3(c2ccccc2)c2ccccc2)cc1 (stereo not given)", "Potency": "25.1 µM (active)"}
{"compound": "CCc1ccccc1OCCSc1nc(-c2cccs2)nc2cc(=O)[nH]n12", "Potency": "3.16 µM (active)"}
{"compound": "Nc1nc(N)c2[nH]c(CNc3ccc(C(=O)O)cc3)nc2n1", "Potency": "3.98 µM (active)"}
{"compound": "O=C(Nc1ccc2c(c1)OCO2)c1ccc(N2C(=O)c3ccccc3C2=O)cc1", "Potency": "6.31 µM (active)"}
{"compound": "O=c1cnc2cnc(Nc3ccccc3)nc2n1Cc1ccc(F)cc1", "Potency": "20 µM (active)"}

* * *

Listing of recorded max response, negative = inhibition by entry.
biological target: Cruzipain (Trypanosoma cruzi) (UniProt P25779); experiment: qHTS Assay for Promiscuous and Specific Inhibitors of Cruzain (without detergent); conditions: purified cruzain, Z-FR-AMC fluorescence, no detergent; note: nearly all actives have a fitted effect of over 40% in size;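 for max response, negative = inhibition: plate controls were enzyme without inhibitor for no effect and buffer without enzyme for full effect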
Sequence (P25779 123-467 limits assumed): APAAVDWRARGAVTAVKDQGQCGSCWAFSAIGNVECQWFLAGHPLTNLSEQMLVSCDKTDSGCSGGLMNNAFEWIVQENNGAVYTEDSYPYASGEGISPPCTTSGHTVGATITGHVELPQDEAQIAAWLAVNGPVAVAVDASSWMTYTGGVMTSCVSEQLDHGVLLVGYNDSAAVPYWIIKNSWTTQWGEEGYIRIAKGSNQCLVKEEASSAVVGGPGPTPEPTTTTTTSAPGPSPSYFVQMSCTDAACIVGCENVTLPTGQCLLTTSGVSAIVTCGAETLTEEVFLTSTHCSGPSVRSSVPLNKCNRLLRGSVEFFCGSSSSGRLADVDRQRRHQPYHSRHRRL
Among all 200,000 compounds or so, about 4,500 (2.2%) were called active. Another 12% or so got no clear call; they are omitted. The list comes from a sample in which actives are over-represented; it also holds close analogues and randomly drawn compounds.
assay.endpoint: max response, negative = inhibition (%)

{"compound": "O=C(Nc1ccc2c(c1)OCO2)c1cc(-c2cccc(Cl)c2)on1", "assay.value": -7.12}
{"compound": "COc1ccc(OC)c(CNC(=O)Cn2nc(C)c3c(C)n(-c4ccccc4)nc3c2=O)c1", "assay.value": -8.59}
{"compound": "CC(=O)c1ccc(NC(=O)CSc2nnc(NC(=O)Nc3ccccc3)s2)cc1", "assay.value": 10.4}
{"compound": "CCn1c(=O)cc(OCC(=O)Nc2cc(Cl)c(OC)cc2OC)c2ccccc21", "assay.value": 0.57}
{"compound": "COc1ccc(C(=O)Nc2ncc3c(n2)-c2ccccc2CC3)cc1", "assay.value": -8}
{"compound": "CCc1nn(CC(=O)NCC(C)c2ccccc2)c(=O)c2cc3occc3n12 (stereo not drawn)", "assay.value": -11.2}
{"compound": "COc1ccc(OC)c(-c2csc(-c3c(N)c(C(=O)c4ccccc4)n4ccccc34)n2)c1", "assay.value": -9.44}
{"compound": "COc1ccc(-n2c(SCC(N)=O)nc3c(oc4ccccc43)c2=O)cc1", "assay.value": -4.62}
{"compound": "O=C(Nc1nncs1)c1cccc(S(=O)(=O)N2CCCCC2)c1", "assay.value": 0.0572}
{"compound": "CC(=O)c1c(C)[nH]c(C(=O)OCC(=O)Nc2sc3c(c2C#N)CCCC3)c1C", "assay.value": 11.6}
{"compound": "CCOc1cccc2sc(N3CCN(C(=O)C4CC4)CC3)nc12", "assay.value": 4.68}
{"compound": "Cc1ccc2nc(S(=O)(=O)O)[nH]c2c1", "assay.value": -1.87}
{"compound": "Cc1ccc(N/C=C/C(=O)c2ccccc2)cc1C", "assay.value": -22.6}
{"compound": "COc1ccc(C(=O)CSc2nnc(NC(=O)C3CC(=O)N(c4cccc(OC)c4)C3)s2)cc1 (stereo not drawn)", "assay.value": -5.43}
{"compound": "CCC(=O)N1CCc2cc(CNS(=O)(=O)c3ccc(Br)s3)ccc21", "assay.value": -2.98}
{"compound": "Cc1ccc(NC(=O)c2ccc3[nH]c(C)cc(=O)c3c2)c(C)c1", "assay.value": -6.14}
{"compound": "COc1ccc(-c2[nH]c3c(c2-c2c(-n4cccc4)n(C)c(=O)n(C)c2=O)c(=O)n(C)c(=O)n3C)cc1", "assay.value": -3.26}
{"compound": "CC(C)(C)c1ccc(C(=O)NCC(=O)OCN2C(=O)c3ccccc3C2=O)cc1", "assay.value": 8.73}
{"compound": "Cn1c(=O)c2c(SCC(=O)N3CCc4ccccc43)nc(-c3ccc(Cl)cc3)nc2n(C)c1=O", "assay.value": 16.5}
{"compound": "COC(=O)c1ccccc1NC(=O)c1cnn(-c2ccc(F)cc2)c1-n1cccc1", "assay.value": 3.91}
{"compound": "O=C(NCCOc1ccccc1)c1ccccc1", "assay.value": -3.94}
{"compound": "NS(=O)(=O)c1ccc(CCNC(=O)CCCCCn2c(=O)[nH]c3ccccc3c2=O)cc1", "assay.value": -15.6}
{"compound": "O=C(CC(c1cccs1)N1Cc2ccccc2C1=O)Nc1ccc(F)cc1F (stereo not drawn)", "assay.value": -15.6}
{"compound": "CCC(=O)N1c2ccccc2CC1C(=O)N1CCN(c2ccccc2)CC1 (stereo not drawn)", "assay.value": 7.34}
{"compound": "Cc1ccc2onc(CC(=O)N3CCN(c4ccc(Cl)cc4)CC3)c2c1", "assay.value": 7.92}
{"compound": "Cc1ccc(NC(=O)C2CCCN2S(=O)(=O)c2cccc3cccnc23)c(C)c1 (stereo not drawn)", "assay.value": -5.43}
{"compound": "COc1ccccc1-c1nc(C(F)(F)F)c(OC)o1", "assay.value": -2.62}
{"compound": "Cc1ccccc1CS(=O)(=O)CC1Nc2ccc(C(=O)NCc3ccc(Cl)cc3)cc2NC1=O (stereo not drawn)", "assay.value": -11.5}
{"compound": "COc1ccc(CCNC(=O)CCCCn2c(=O)c3ccccc3n(Cc3ccccc3C)c2=O)cc1OC", "assay.value": -7.48}
{"compound": "CCOC(=O)c1cc(-c2ccccc2)n(-c2cccc(C(=O)Nc3cc(OC)cc(OC)c3)c2)c1C", "assay.value": -4.47}
{"compound": "CCCSc1ncc(Cl)c(C(=O)Nc2c(C(=O)Nc3ccccc3)oc3ccccc23)n1", "assay.value": -6.15}
{"compound": "C=CC(C1=CC(=O)C=CC1=O)c1ccc(O)cc1 (stereo not drawn)", "assay.value": -6.77}
{"compound": "CNc1nc(-c2ccccc2OC)nc2ccccc12", "assay.value": -18.4}
{"compound": "O=C(NCCCc1ccccc1)c1ccc2c(c1)sc1nc(-c3ccc(F)cc3)cn12", "assay.value": 4.05}
{"compound": "CC(C)C(=O)Nc1cccc(C(=O)Nc2ccc3c(c2)OCO3)c1", "assay.value": -8.97}
{"compound": "Cc1csc(NC(=S)Nc2cccc(Cl)c2)n1", "assay.value": -0.724}
{"compound": "O=C(Cn1cnc2c(nnn2Cc2ccc(F)cc2)c1=O)NCc1ccc2c(c1)OCO2", "assay.value": -6.08}
{"compound": "CCC(CC)c1nn2cc(-c3ccccc3)nc2s1", "assay.value": -2.39}
{"compound": "CC(C)NS(=O)(=O)c1ccc(OCC(=O)Nc2ccc3c(c2)OCCO3)cc1", "assay.value": 5.06}
{"compound": "O=C(Nc1cccc2ncccc12)c1ccc(-c2ccc(Cl)cc2Cl)o1", "assay.value": -11.1}
{"compound": "COc1cc(OC)c(NC(=O)Cc2ccc(-n3c(C)nc4cccnc43)cc2)cc1Cl", "assay.value": 4.77}
{"compound": "CCCC12CN3CC(CCC)(CN(C1)C3c1c[nH]c3ccc(OC)cc13)C2=O (stereo not drawn)", "assay.value": 15.7}
{"compound": "Cc1cc(C)cc(NC(=O)Cn2nc(N3CCN(c4ccccc4)CC3)ccc2=O)c1", "assay.value": -3.11}
